Recorded IC50 for the following compounds
system.name: Luciferin 4-monooxygenase (Luciola lateralis)
Sequence (Q01158 whole entry): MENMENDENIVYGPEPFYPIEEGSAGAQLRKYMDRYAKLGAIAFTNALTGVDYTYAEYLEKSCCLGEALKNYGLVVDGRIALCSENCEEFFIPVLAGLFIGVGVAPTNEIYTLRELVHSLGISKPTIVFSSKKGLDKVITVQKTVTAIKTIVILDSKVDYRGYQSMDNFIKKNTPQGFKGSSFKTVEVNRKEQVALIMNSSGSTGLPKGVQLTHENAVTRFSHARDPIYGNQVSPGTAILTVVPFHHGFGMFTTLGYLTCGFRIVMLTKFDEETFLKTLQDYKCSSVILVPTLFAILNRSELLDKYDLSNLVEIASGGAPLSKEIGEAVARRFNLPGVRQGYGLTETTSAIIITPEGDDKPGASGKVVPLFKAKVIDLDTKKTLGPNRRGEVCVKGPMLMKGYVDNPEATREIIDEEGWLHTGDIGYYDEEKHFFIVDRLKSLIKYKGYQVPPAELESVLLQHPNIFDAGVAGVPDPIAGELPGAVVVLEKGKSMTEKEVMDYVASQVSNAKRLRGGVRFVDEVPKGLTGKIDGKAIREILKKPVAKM
method.summary: Inhibition of fire fly luciferase
Design: species or system Aquatica lateralis
condition.description: read-out: IC50
measured.quantity: IC50 (µM)

[[record]]
record_smiles = "CC(C)Oc1cccc(-c2cnc(N3CCC(C(N)=O)CC3)s2)c1"
recorded_result = 0.8

[[record]]
record_smiles = "O=C(O)C1CCN(c2nc(-c3ccc(Br)cc3)cs2)CC1"
recorded_result = 1.6

[[record]]
record_smiles = "CSc1ccc(-c2cnc(N3CCC(C(N)=O)CC3)s2)cc1"
recorded_result = 40


* * *

method.summary: Plasma concentration in Swiss albino mouse at 30 mg/kg, po after 4 hrs
Assay type: ADME, organism-based
Set-up: dose 30 mg/kg, route oral
Here the recorded concentration at 4 h is given for each entry.
measured.quantity: concentration at 4 h (µM)

[[record]]
record_smiles = "CC(C)Oc1cccc(-c2cnc(N3CCC(C(N)=O)CC3)s2)c1"
recorded_result = 0.0028

[[record]]
record_smiles = "O=C(O)C1CCN(c2ncc(-c3ccc4c(c3)OCCCO4)s2)CC1"
recorded_result = 10.8


* * *

In this section, each of the molecules is paired with its reported Activity.
system.name: Survival motor neuron protein (Homo sapiens) (UniProt Q16637)
Sequence (Q16637 whole entry): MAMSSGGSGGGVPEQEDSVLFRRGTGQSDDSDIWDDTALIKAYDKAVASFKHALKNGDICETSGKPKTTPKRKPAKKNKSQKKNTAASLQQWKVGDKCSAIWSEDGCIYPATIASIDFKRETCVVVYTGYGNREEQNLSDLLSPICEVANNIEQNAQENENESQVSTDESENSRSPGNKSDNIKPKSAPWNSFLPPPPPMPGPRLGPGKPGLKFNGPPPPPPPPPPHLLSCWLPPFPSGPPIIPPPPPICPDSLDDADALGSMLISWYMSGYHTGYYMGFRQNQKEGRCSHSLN
method.summary: Activation of SMN expressed in HEK293 cells assessed as rate of induction by SMN2-promotor driven luciferase reporter gene assay relative to basal level
Assay type: cell-based
Design: concentration or dose not given beside the values
measured.quantity: Activity (%)

[[record]]
record_smiles = "NC1CCN(c2nc(-c3ccc(Br)cc3)cs2)CC1"
system_name = "Survival motor neuron protein (Homo sapiens) (UniProt Q16637)"
recorded_result = 182

[[record]]
record_smiles = "NC(=O)C1CCN(c2nc(-c3ccc4c(c3)OCCO4)cs2)CC1"
system_name = "Survival motor neuron protein (Homo sapiens) (UniProt Q16637)"
recorded_result = 459

[[record]]
record_smiles = "O=C(O)C1CCN(c2ncc(-c3ccc4c(c3)OCCCO4)s2)CC1"
system_name = "Survival motor neuron protein (Homo sapiens) (UniProt Q16637)"
recorded_result = 325

[[record]]
record_smiles = "NC(=O)C1CCN(c2nc(-c3ccc(Cl)cc3)cs2)CC1"
system_name = "Survival motor neuron protein (Homo sapiens) (UniProt Q16637)"
recorded_result = 381

